- assay.target: full-length mouse Notch1 expressed on the cell surface of U-2 OS cells (mouse, UniProt Q01705 19-2531)
- Sequence (Q01705 19-2531): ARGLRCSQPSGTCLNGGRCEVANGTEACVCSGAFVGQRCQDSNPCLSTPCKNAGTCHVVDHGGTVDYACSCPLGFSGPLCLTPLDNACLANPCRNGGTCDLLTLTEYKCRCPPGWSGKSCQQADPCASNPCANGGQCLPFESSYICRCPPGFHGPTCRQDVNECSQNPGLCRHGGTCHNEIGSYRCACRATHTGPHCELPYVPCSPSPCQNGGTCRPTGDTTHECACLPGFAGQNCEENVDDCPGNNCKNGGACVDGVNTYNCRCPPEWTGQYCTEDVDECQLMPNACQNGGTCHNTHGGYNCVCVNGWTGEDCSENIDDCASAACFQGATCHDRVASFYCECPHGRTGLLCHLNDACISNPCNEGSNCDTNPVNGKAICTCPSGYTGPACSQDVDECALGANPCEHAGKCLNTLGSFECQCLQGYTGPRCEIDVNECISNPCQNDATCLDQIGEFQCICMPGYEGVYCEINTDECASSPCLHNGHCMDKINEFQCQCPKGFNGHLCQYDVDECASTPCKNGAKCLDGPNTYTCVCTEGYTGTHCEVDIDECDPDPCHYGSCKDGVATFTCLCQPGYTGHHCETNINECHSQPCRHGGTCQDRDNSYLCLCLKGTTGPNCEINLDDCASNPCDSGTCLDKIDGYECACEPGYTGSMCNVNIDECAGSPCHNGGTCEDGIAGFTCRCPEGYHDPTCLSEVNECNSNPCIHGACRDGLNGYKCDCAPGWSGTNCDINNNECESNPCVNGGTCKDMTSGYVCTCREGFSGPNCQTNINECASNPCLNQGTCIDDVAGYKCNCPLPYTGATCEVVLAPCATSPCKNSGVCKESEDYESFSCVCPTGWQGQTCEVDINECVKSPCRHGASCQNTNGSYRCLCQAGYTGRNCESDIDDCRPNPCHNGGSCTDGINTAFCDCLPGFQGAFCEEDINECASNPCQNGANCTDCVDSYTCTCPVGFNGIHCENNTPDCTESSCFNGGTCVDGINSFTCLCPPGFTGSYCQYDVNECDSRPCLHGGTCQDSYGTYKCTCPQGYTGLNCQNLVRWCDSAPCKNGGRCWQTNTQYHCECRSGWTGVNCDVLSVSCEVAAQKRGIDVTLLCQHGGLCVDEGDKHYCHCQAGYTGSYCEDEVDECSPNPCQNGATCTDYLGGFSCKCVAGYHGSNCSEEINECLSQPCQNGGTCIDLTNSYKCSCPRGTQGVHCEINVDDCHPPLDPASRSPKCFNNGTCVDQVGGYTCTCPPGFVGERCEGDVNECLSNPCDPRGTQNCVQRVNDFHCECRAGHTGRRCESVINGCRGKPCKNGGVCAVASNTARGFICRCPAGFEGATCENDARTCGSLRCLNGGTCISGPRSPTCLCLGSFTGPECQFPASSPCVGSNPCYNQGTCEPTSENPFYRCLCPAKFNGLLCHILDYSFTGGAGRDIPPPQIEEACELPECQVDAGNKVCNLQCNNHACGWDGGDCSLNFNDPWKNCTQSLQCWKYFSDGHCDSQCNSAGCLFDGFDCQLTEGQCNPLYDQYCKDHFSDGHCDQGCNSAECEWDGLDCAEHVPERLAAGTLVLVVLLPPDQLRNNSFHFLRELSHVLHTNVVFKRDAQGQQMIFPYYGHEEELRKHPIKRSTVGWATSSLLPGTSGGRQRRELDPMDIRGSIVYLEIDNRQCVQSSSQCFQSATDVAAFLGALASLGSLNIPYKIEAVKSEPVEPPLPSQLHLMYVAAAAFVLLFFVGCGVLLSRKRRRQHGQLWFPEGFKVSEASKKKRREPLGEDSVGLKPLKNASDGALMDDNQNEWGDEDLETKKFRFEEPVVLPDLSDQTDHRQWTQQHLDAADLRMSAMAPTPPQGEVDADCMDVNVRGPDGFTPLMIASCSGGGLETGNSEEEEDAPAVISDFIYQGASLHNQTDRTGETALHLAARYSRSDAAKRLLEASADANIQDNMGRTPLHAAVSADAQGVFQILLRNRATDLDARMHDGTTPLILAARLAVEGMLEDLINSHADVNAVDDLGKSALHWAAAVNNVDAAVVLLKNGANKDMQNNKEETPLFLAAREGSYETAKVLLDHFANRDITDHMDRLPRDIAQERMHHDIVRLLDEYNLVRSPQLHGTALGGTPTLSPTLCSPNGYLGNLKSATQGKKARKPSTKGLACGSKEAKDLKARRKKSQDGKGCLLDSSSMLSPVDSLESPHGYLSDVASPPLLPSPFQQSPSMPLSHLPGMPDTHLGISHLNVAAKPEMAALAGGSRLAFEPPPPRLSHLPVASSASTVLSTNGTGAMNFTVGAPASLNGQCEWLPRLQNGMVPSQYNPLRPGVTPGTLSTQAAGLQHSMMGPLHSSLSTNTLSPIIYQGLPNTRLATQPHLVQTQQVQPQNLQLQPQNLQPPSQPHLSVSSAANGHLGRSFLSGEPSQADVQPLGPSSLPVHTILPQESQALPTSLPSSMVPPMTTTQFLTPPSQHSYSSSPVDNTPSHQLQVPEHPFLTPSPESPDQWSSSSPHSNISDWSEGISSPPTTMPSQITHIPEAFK
- procedure.details: cell-based or functional assay
# IC50, mouse Notch1 reporter gene co-culture assay (DLL4-HEK293) annotations
readout: IC50, mouse Notch1 reporter gene co-culture assay (DLL4-HEK293) (nM)

{"binder": "humanized 438 VH1.0/VL1.8 (antibody, human IgG1, V domains shown) VH: EVQLVESGGGLVQPGGSLRLSCAASGFTFSSFAMAWVRQAPGKGLEWVASISYGGADTYYRDSVKGRFTISRDNAKNSLYLQMNSLRAEDTAVYYCARDLPYYGYTPFVMDAWGQGTLVTVSS VL: DIQMTQSPSSLSASVGDRVTITCRASQRINTDLHWYQQKPGKAPKVLIKFASQTISGVPSRFSGSGSGTDFTLTISSLQPEDFATYYCQQSNSWPYTFGQGTKLEIK", "measure.unit": "nM", "recorded.number": 1.37}
{"binder": "humanized 438 VH1.1/VL1.3 (antibody, human IgG1, V domains shown) VH: EVQLVESGGGLVQPGGSLRLSCAASGFTFSSFAMAWVRQAPGKGLEWVASISYGGADTYYRDSVKGRFTISRDNAKNSLYLQMNSLRAEDTAVYYCAKDLPYYGYTPFVMDAWGQGTLVTVSS VL: DIQLTQSPSSLSASVGDRVTITCRASQRINTDLHWYQQKPGKAPKLLIYFASQTISGVPSRFSGSGSGTDFTLTISSLQPEDFATYYCQQSNSWPYTFGQGTKLEIK", "measure.unit": "nM", "recorded.number": 0.62}
